Where do these numbers come from? They come from ChEMBL document CHEMBL4334523.

- Study system: Stimulator of interferon genes protein (Homo sapiens, UniProt Q86WV6, R293Q)
- Sequence (Q86WV6 whole entry R293Q): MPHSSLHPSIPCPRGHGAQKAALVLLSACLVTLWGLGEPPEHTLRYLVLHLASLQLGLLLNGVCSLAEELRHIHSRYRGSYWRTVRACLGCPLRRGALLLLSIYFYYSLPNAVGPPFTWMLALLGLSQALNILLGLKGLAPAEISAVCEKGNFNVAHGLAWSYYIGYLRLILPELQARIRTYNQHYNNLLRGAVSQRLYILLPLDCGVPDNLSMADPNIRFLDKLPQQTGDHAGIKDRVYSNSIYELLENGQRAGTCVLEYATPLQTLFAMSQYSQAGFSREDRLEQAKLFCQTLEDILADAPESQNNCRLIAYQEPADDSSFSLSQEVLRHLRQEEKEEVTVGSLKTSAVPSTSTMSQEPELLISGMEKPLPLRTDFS
- Assay protocol: Activation of recombinant human STING haplotype R293Q mutant expressed in 293T cells measured after 30 mins in presence of digitonin A by bright Glo-luciferase reporter gene assay
// NB: equality with 6 µM counts as label 0; only EC50 strictly below is label 1

[
  {
    "Structure smiles string": "Nc1ncc2ncn([C@@H]3O[C@@H]4COP(=O)(O)O[C@@H]5[C@H](O)[C@@H](COP(=O)(O)O[C@H]4[C@H]3O)O[C@H]5n3cnc4c(=O)[nH]c(N)nc43)c2n1",
    "Study system": "Stimulator of interferon genes protein (Homo sapiens, UniProt Q86WV6, R293Q)",
    "Assigned class": "label 1"
  },
  {
    "Structure smiles string": "Nc1nc2c(ncn2[C@@H]2O[C@@H]3COP(=O)(O)O[C@H]4[C@@H](O)[C@H](n5cnc6c(=S)[nH]cnc65)O[C@@H]4COP(=O)(O)O[C@@H]2[C@@H]3O)c(=O)[nH]1",
    "Study system": "Stimulator of interferon genes protein (Homo sapiens, UniProt Q86WV6, R293Q)",
    "Assigned class": "label 0"
  },
  {
    "Structure smiles string": "CSc1nc(N)nc2c1ncn2[C@@H]1O[C@@H]2COP(=O)(O)O[C@@H]3[C@H](O)[C@@H](COP(=O)(O)O[C@H]2[C@H]1O)O[C@H]3n1cnc2c(=O)[nH]c(N)nc21",
    "Study system": "Stimulator of interferon genes protein (Homo sapiens, UniProt Q86WV6, R293Q)",
    "Assigned class": "label 0"
  },
  {
    "Structure smiles string": "Nc1nc2c(ncn2[C@@H]2O[C@@H]3COP(=O)(O)O[C@H]4[C@@H](O)[C@H](n5nnc6c(N)ncnc65)O[C@@H]4COP(=O)(O)O[C@@H]2[C@@H]3O)c(=O)[nH]1",
    "Study system": "Stimulator of interferon genes protein (Homo sapiens, UniProt Q86WV6, R293Q)",
    "Assigned class": "label 1"
  },
  {
    "Structure smiles string": "CSc1ncnc2c1ncn2[C@@H]1O[C@@H]2COP(=O)(O)O[C@@H]3[C@H](O)[C@@H](COP(=O)(O)O[C@H]2[C@H]1O)O[C@H]3n1cnc2c(=O)[nH]c(N)nc21",
    "Study system": "Stimulator of interferon genes protein (Homo sapiens, UniProt Q86WV6, R293Q)",
    "Assigned class": "label 1"
  }
]
